# System: SK-MEL-2
# ASSAY PROCEDURE: NCI tumour cell line growth inhibition, 48 h
Active and inactive are the calls of the source. Cut-off read from the data, not from the text of the source: active = GI50 up to about 1.1 µM and inactive = higher.
RECORDED METRIC: GI50

Task: Give its GI50 value. Item: "O=C(O)c1cc2ccccc2c(/N=N/c2ccccc2)c1O"
Result: > 10 µM (inactive)

Task: Same read-out for "O=c1[nH][nH]c(=O)n1Cc1cccc(Cn2c(=O)[nH][nH]c2=O)c1" ?
Result: > 100 µM (inactive)

Task: Try this compound too: "N#C/C(=C\c1cccc(O)c1O)C(N)=O"
Result: 38.4 µM (inactive)

Task: // same read-out, input: Cc1cn(C2CC(n3cncn3)C(C(C)O)O2)c(=O)[nH]c1=O (configuration not stated)
Result: > 100 µM (inactive)

Task: Do the same for "O=C(O)c1cc2ccccc2c(/N=N/c2ccc(S(=O)(=O)Nc3nccs3)cc2)c1O" please
Result: > 100 µM (inactive)

Task: One more compound: "CSc1c2c(C)n[nH]c2nn1-c1ccccc1"
Result: > 100 µM (inactive)

Task: Let us now turn to "CCOn1c(C2(CC3CCN(C(=O)c4ccccc4)CC3)OCCO2)cc2ccccc21"
Result: 16.8 µM (inactive)

Task: What do you have for "O=C(O)c1ccccc1C(=O)c1ccco1" ?
Result: > 100 µM (inactive)

Task: What about COc1ccc(C2SCC(=O)N2c2ccc(-n3c(-c4ccccc4)nc4ccccc4c3=O)cc2)cc1 (configuration not stated) ?
Result: 6.95 µM (inactive)

Task: "N#Cc1c(N2CCN(c3ccc([N+](=O)[O-])cc3)CC2)[n+]([O-])c2ccc(Cl)cc2[n+]1[O-]" , same question.
Result: 2.2 µM (inactive)

Task: Queued: "Cc1nn2c(=O)n(-c3cccc(-n4nnc5c(-c6ccccc6)c(C)nn5c4=O)c3C)nnc2c1-c1ccccc1"
Result: 3.33 µM (inactive)

Task: Quick one: "COC(=O)N1[C@H]2Cc3c(OC)c(C)c(OC)c(OC)c3[C@@H]1/C(=C\c1cc(OC)c(OC)c(C)c1OC)N(Cc1ccccc1)C2=O"
Result: 24.7 µM (inactive)

Task: Entry CCC(C)C(C(=O)N/N=C1/SCC(=O)N1c1ccccc1)C(=O)N/N=C1/SCC(=O)N1c1ccccc1 (configuration not stated) please
Result: 33.7 µM (inactive)

Task: What about Cc1ccc2c(c1)Nc1cc(C(F)(F)F)ccc1[PH]2=O (configuration not stated) ?
Result: 31 µM (inactive)

Task: Check "CNC(=O)OCc1nc(SSC(C)(C)C)n(C)c1COC(=O)NC" too.
Result: 8.02 µM (inactive)

Task: Try the compound "CCOC(=O)c1c(-c2ccccc2)c(C)cn1C"
Result: > 10 µM (inactive)

Task: Likewise for "N=C(N)c1ccc(OCCCCCOc2ccc(C(=N)N)cc2)cc1" ?
Result: 17.3 µM (inactive)

Task: How about "O=P(O)(O)OP(=O)(O)O" ?
Result: > 100 µM (inactive)

Task: Now consider "CCOC(=O)C(C)(c1c(C)[nH]c2ccccc12)c1c(C)[nH]c2ccccc12" .
Result: 18.8 µM (inactive)

Task: Also, CN(C)N1C(=O)c2ccccc2NC1c1ccccc1 (configuration not stated) please.
Result: > 100 µM (inactive)

Task: Same question for "O=C1Cc2c(-c3ccccc3)cc(-c3cccc(Cl)c3)nc2-c2ccccc2N1" please.
Result: 8 µM (inactive)

Task: Try "CCN(CC)CCN1C(=O)c2c(c(-c3ccccc3)c3ccccc3c2-c2ccccc2)C1=O" next.
Result: > 100 µM (inactive)

====

# System: SN12C
# ASSAY PROCEDURE: NCI tumour cell line growth inhibition, 48 h
Calls of active or inactive are those of the source. No stated cut-off is given here; in the data, active = GI50 up to about 1.1 µM and inactive = higher.
Assign GI50 to each entry below.

Task: Give SN12C GI50 for Fc1ccc2c(c1)nc1n2C(c2c(Cl)cccc2Cl)SC1 (stereo unspecified)
Result: 17.3 µM (inactive)

Task: Continue with CCO/C=C1\N=C(C(Cl)c2ccccc2)OC1=O (stereo unspecified)
Result: > 100 µM (inactive)

Task: Try the compound CC(/C=C1\CCC(CN(C)C)C1=O)c1cccc(Br)c1 (stereo unspecified)
Result: 22 µM (inactive)

Task: Now this one: "O=C(c1ccccc1)N1CCc2c([nH]c3ccccc23)C1"
Result: 34 µM (inactive)

Task: Likewise for O=C(NC(Cc1c[nH]c2ccccc12)C(=O)O)/C(=C/c1ccccc1)NC(=O)c1ccccc1 (stereo unspecified) ?
Result: > 100 µM (inactive)

Task: Now try "COc1cc2c(oc(=O)c3c4occc4cc(OC)c23)c2cccc(O)c12" .
Result: > 100 µM (inactive)

Task: Can you handle CC(=O)OC(C(=O)O)C(OC(C)=O)C(OC(C)=O)C(OC(C)=O)C(=O)O (stereo unspecified) next?
Result: > 100 µM (inactive)

Task: For CCCNC(/C=C/[Si](C)(C)C)CO.CCCNCC(O)/C=C/[Si](C)(C)C (stereo unspecified) then?
Result: > 100 µM (inactive)

Task: Now the same for "O=P1(N2CCOCC2)OCCO1"
Result: > 100 µM (inactive)

Task: Note, next up: Cc1cc(Cl)ccc1NC(=O)CCCC(=O)C1C/C(=N/O)CC/C1=N\O (stereo unspecified)
Result: > 100 µM (inactive)

Task: Consider next the compound CC(=O)OC1(C)N=NC2(CCCCC2)O1 (stereo unspecified) in the same way.
Result: > 100 µM (inactive)

====

# Tested on: HOP-92
# ASSAY PROCEDURE: NCI tumour cell line growth inhibition, 48 h
Activity calls are given as the source filed them. Cut-off read from the data, not from the text of the source: active = GI50 up to about 1.1 µM and inactive = higher.
Outcomes you can answer with include only these: active, inactive

Task: What outcome does the record of this test show for "COc1cc2c(oc(=O)c3c4occc4cc(OC)c23)c2cccc(O)c12" ?
Result: inactive

Task: Repeat for the following compound: CSCCC(C(=O)O)N(C)C (stereo not drawn)
Result: inactive

Task: // same read-out, input: "CN(N=O)C(=O)NNC(=O)N(C)N=O"
Result: inactive

Task: Also, COc1ccc([C@@]23Oc4cc(OC)cc(OC)c4[C@]2(O)[C@H](O)[C@H](C(=O)N(C)C)[C@H]3c2ccccc2)cc1 [ROCAGLAMIDE] please.
Result: active

Task: What do you get for O=C(c1ccccc1)C1C(C(=O)c2ccccc2)N1Cc1ccccc1 (stereo not drawn) ?
Result: inactive

Task: Now give it for "CC1=C(C#N)C(N)=C2C(C)=C(C#N)C(N)=C12" too.
Result: inactive

Task: Likewise for "CCCCCCCCCC(=O)Oc1cccc2onc(C)c12" ?
Result: inactive

Task: Please give the result for "CC(C)(C)C(=O)CC(=O)C(C)(C)C.CC(C)(C)C(=O)CC(=O)C(C)(C)C.[SiH4]" too.
Result: active

Task: Follow-up entry: CC(/C=C1\CCC(CN(C)C)C1=O)c1cccc(Br)c1 (stereo not drawn)
Result: inactive

Task: Same again, this time with CC1=NN(C(=O)c2ccncc2)C(=O)C1/N=N/c1ccc2ccccc2c1 (stereo not drawn)
Result: inactive

Task: Field entry: "O=P(O)(O)OP(=O)(O)O"
Result: inactive

Task: Note, next up: CC1SCCc2nc3ccccc3n21 (stereo not drawn)
Result: inactive

Task: How about this compound: CC(C)(C)[Si](C)(C)OCC#C[C@@]1(O)CCCCC1CC(Sc1ccccc1)Sc1ccccc1 (stereo partly drawn)
Result: inactive

Task: Now consider N#CC1=C(S)N(C2OC(CO)C(O)C(O)C2O)C(c2ccccc2)=CC1c1cccs1 (stereo not drawn) .
Result: inactive

Task: What do you have for "COC(=O)N1[C@H]2Cc3c(OC)c(C)c(OC)c(OC)c3[C@@H]1/C(=C\c1cc(OC)c(OC)c(C)c1OC)N(Cc1ccccc1)C2=O" ?
Result: inactive

Task: And the next one, "C=C(C(=O)OC)c1cc2ccccc2n1S(=O)(=O)c1ccccc1" ?
Result: active

Task: Consider next the compound "Cc1ccc2c(O)cc(-c3cc(C)sc3C)nc2n1" in the same way.
Result: inactive

Task: Entry to check: c1ccc(-c2nn(-c3ccccc3)[n+](-c3ccccc3)n2)cc1 [TETRAZOLIUM RED]
Result: inactive

Task: Let us now turn to CC(=O)NCCCCCCNC(C)=O [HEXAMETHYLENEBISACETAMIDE]
Result: inactive

Task: Lookup C[N+](C)(C)CC1CCCC/C1=N\OC(=O)c1ccccc1 (stereo not drawn)
Result: inactive

Task: Also "COc1ccc(C)cc1-c1cc(Sc2ccccc2)c(-c2cc(C)ccc2OC)o1" , if possible.
Result: inactive

Task: Param item: CC12CCCC(O)C1CCC1=CC3(CCC12)SCCS3 (stereo not drawn)
Result: inactive

Task: // repeat for "Cn1c(=O)c2c(nc3n2CCC(=O)N3CCCCl)n(C)c1=O" and report
Result: inactive

====

# System: NCI-H460
# ASSAY PROCEDURE: NCI tumour cell line growth inhibition, 48 h
Activity calls are given as the source filed them. Rule as the data show it: active = GI50 up to about 1.1 µM and inactive = higher.
Could you please report measured GI50 for the items listed next?

Task: Recorded GI50 for "CN(C)CCCSc1nc2ccccc2[nH]1" , please?
Result: > 100 µM (inactive)

Task: What do we get for "COC(=O)c1ccccc1/C=C1\Cc2cc(C)c(C)cc2C1=O" ?
Result: > 100 µM (inactive)

Task: How about "COC(=O)Nc1nc2cc(NS(=O)(=O)c3ccc(F)cc3)ccc2[nH]1" ?
Result: 24.7 µM (inactive)

Task: Okay, and COC1=CC(=O)C2C(C1=O)C(c1ccc(Cl)cc1)[C@@H]2C (stereo not given in full) ?
Result: 30.1 µM (inactive)

Task: Next: O=c1ccn(CC2(CO)CC(Cc3ccccc3)C2)c(=O)[nH]1 (stereo not given)
Result: > 100 µM (inactive)

Task: "CC(C)(C)CC(C)(C)c1cc2c(O)c(c1)Cc1cc(C(C)(C)CC(C)(C)C)cc(c1O)Cc1cc(C(C)(C)CC(C)(C)C)cc(c1O)Cc1cc(C(C)(C)CC(C)(C)C)cc(c1O)Cc1cc(C(C)(C)CC(C)(C)C)cc(c1O)Cc1cc(C(C)(C)CC(C)(C)C)cc(c1O)Cc1cc(C(C)(C)CC(C)(C)C)cc(c1O)Cc1cc(C(C)(C)CC(C)(C)C)cc(c1O)C2" ?
Result: > 100 µM (inactive)

Task: Now the compound CC(C)(C)OC(=O)NC(CO)c1cccc(OCc2ccccc2)c1 (stereo not given)
Result: 35.3 µM (inactive)

Task: Do the same for "[O-][n+]1ccccc1Sc1nc(Sc2cccc[n+]2[O-])nc(Sc2cccc[n+]2[O-])n1" please
Result: 1.88 µM (inactive)

Task: Cool, now "CCN(CC)CCN1C(=O)c2c(c(-c3ccccc3)c3ccccc3c2-c2ccccc2)C1=O"
Result: > 100 µM (inactive)

Task: Then this compound: "CCc1ccc2c(c1)/C(=C1/Nc3ccccc3C1=O)C(=O)N2"
Result: 23.3 µM (inactive)
